run_description: protein stability index of a GFP-peptide fusion (yeast GPS) (PSI 1-4); higher = more stable; sorted into four equal gates, so the index is relative within each strain
settings: doa10∆
endpoint_label: protein stability index
Just the number.

// sample KQIDIPNFNVEIMQQKF [ECM29] , its protein stability index was 2.4

// sample SHERFFLSQGLHVVITL [CSN12] , its protein stability index was 2.89

// sample EDEEKILDNTENYDDTE [DSN1] , its protein stability index was 3.37

// sample GKGIKLSIAEERDRRRA [RPS4A] , its protein stability index was 2.59

// sample NGTMINEVIDKLKNENT [PCI8] , its protein stability index was 2.84

// sample MNEMCKKINAKEKLIGW [RPN8] , its protein stability index was 2.86

// sample KRPIESGTSSDPDTKKV [YIL149C/MLP2] , its protein stability index was 3.35

// sample KVSPSMCGVIVKQYNKK [SIN4] , its protein stability index was 3

// sample DHDDSTDDADDHINWEH [NSL1] , its protein stability index was 3.31

// sample LASIPDIFITPTPVVTI [SSN2] , its protein stability index was 1.71

// sample FADKKRDCIDISIFSTP [PRP8] , its protein stability index was 3.2

// sample PEELARILQQLKLDKII [RGR1] , its protein stability index was 2.51

// sample MFGIRSGNNNGGFTNLT [YDL088C/ASM4] , its protein stability index was 3.23

// sample VTRFDEKQIEELLDNCI [SRB6] , its protein stability index was 2.9

###

run_description: protein stability index of a GFP-peptide fusion (yeast GPS) (PSI 1-4); higher = more stable; sorted into four equal gates, so the index is relative within each strain
settings: ubr1∆
Decision: protein stability index >= 3 yields y, all other cases yield n.

Is the recorded value of protein stability index equal to or greater than 3 for this sequence? KQIDIPNFNVEIMQQKF [ECM29]
y

Is the recorded value of protein stability index equal to or greater than 3 for this sequence? STLLCTDLESKSRMINF [SNU114]
n

Is the recorded value of protein stability index equal to or greater than 3 for this sequence? EVKLKASLKKMEETEQK [SMC3]
y

Is the recorded value of protein stability index equal to or greater than 3 for this sequence? LVEVEDEKIEAIKKKEK [SRB7]
y

Is the recorded value of protein stability index equal to or greater than 3 for this sequence? NDFKKIGRENENENEDD [POP5]
n

Is the recorded value of protein stability index equal to or greater than 3 for this sequence? SLKLENSDLEGKIRGVE [SMC2]
y

Is the recorded value of protein stability index equal to or greater than 3 for this sequence? NPHDTLNRIKKYLLTQR [PRP8]
n

Is the recorded value of protein stability index equal to or greater than 3 for this sequence? TSLKCLVNRKPIPFEFQ [SNF2]
n

Is the recorded value of protein stability index equal to or greater than 3 for this sequence? TMLELLNQLDGFETSKN [RPT6]
n

Is the recorded value of protein stability index equal to or greater than 3 for this sequence? ELALLNHWRQNKGRAVY [BRR2]
n

Is the recorded value of protein stability index equal to or greater than 3 for this sequence? LELGSCFSQENIEEMAR [SIN4]
n

Is the recorded value of protein stability index equal to or greater than 3 for this sequence? QTAVTCESCSTVLCTPT [RPS27B]
n

Is the recorded value of protein stability index equal to or greater than 3 for this sequence? LVHTQIRKTPLAQKKAH [RPL3]
n

Is the recorded value of protein stability index equal to or greater than 3 for this sequence? VSTSSGAAANNNDQKRQ [YJL041W/NSP1]
y

Is the recorded value of protein stability index equal to or greater than 3 for this sequence? KYRQTKLSKEERAARVA [RPL5]
n

Is the recorded value of protein stability index equal to or greater than 3 for this sequence? NFLLPDIFGDSELFDEW [ISW2]
n

Is the recorded value of protein stability index equal to or greater than 3 for this sequence? AQHESFLRQKICLMTLI [RPN9]
n

Is the recorded value of protein stability index equal to or greater than 3 for this sequence? PFSFSSATSTTEQTKSK [YLR335W/NUP2]
n

Is the recorded value of protein stability index equal to or greater than 3 for this sequence? RRRTYRAHGRINKYESS [RPL17A]
n

Is the recorded value of protein stability index equal to or greater than 3 for this sequence? SYYDNDLDETTQTFNGS [YML031W/NDC1]
n

Is the recorded value of protein stability index equal to or greater than 3 for this sequence? TAEAPTLSFNFSQKANK [YOR098C/NUP1]
y

Is the recorded value of protein stability index equal to or greater than 3 for this sequence? INSGLYSVLLESPLSVA [YML103C/NUP188]
n

Is the recorded value of protein stability index equal to or greater than 3 for this sequence? SSFEENNDLESVSMLLQ [RRI2]
y

Is the recorded value of protein stability index equal to or greater than 3 for this sequence? TRLKSLLKPFHVKVNDK [SIR3]
n

Is the recorded value of protein stability index equal to or greater than 3 for this sequence? HSLAYLLENFANFKTSK [RRP6]
n

Is the recorded value of protein stability index equal to or greater than 3 for this sequence? TIEKDKMKIQETISKLN [SMC2]
n

###

run_description: protein stability index of a GFP-peptide fusion (yeast GPS) (PSI 1-4); higher = more stable; sorted into four equal gates, so the index is relative within each strain
settings: san1∆
I'd be grateful if you could share measured protein stability index for these entries.
Just the number.

// sample VVARRSNSANVSSPESE [ITC1] , its protein stability index was 3.25

// sample IIDEIITQMRVNDEEEH [RPC82] , its protein stability index was 3.54

// sample LYPCYFDINRSHKEGRR [SEC65] , its protein stability index was 1.09

// sample GHDADDGYQLFHAEPSG [PUP2] , its protein stability index was 3.42

// sample GTPKTDSFIFDGTAKEV [MED4] , its protein stability index was 2.58

// sample LEELAETFQDTFSGALG [FAS2] , its protein stability index was 3.21

// sample VDVFAMPQSGTGVSVEA [RPN11] , its protein stability index was 3.41

// sample RVAKGSGTSVFEVEMIL [SRP54] , its protein stability index was 3.39

// sample NTVVGISGDISDMQHIE [PRE4] , its protein stability index was 3.15

// sample TCAGGRLFNVVVQDSQT [SMC2] , its protein stability index was 2.39

// sample DTVSWFKQKYDADVLDK [RPL11A] , its protein stability index was 1.64

// sample DPLNSNIFSEAVKNKYN [PRP28] , its protein stability index was 3.02

// sample QLVIQQGTGKKTASLGN [ISW2] , its protein stability index was 3.23

// sample TFTIKEFVSYYYAHSIP [SNU114] , its protein stability index was 2.25

// sample SRRWRQRKNIQSLELMI [BRR2] , its protein stability index was 2.15

###

run_description: protein stability index of a GFP-peptide fusion (yeast GPS) (PSI 1-4); higher = more stable; sorted into four equal gates, so the index is relative within each strain
settings: san1∆
endpoint_label: protein stability index

// sample YLNGTLIGSIRFPTKFV [RET1] , its protein stability index was 1.64

// sample YTQQQALEYIGAKVKTM [RET1] , its protein stability index was 2.25

// sample VSNPLIQRFFALHYLVP [COB] , its protein stability index was 2.32

// sample EVKLKASLKKMEETEQK [SMC3] , its protein stability index was 3.2

// sample KLNIETMRKISSETDDD [DSN1] , its protein stability index was 2.77

// sample TNENGETDDNIETVMTQ [SRB4] , its protein stability index was 2.44

// sample WLKNKFAEENITHKLTK [BRR2] , its protein stability index was 2.85

// sample CIPLVGISVPFHSTYLM [FAS1] , its protein stability index was 1.27

// sample NNSNSNNNSSNEKEQLS [SEC65] , its protein stability index was 2.79

// sample ERTKQRTAKAYLKVSEE [PRP8] , its protein stability index was 3.27

// sample VYKDNLSFIQVRIDLGT [RPO31] , its protein stability index was 1.79

// sample TFDLTPEDAQLLLAANT [RPS0A] , its protein stability index was 2.31

// sample TIKDLVGGKSTVQNEIL [FAS2] , its protein stability index was 2.21

// sample TPYSNESGLVNADLDVK [RPO21] , its protein stability index was 3.02

// sample DDTWYNLTEFVQMDKIR [AAR2] , its protein stability index was 2.79

###

run_description: protein stability index of a GFP-peptide fusion (yeast GPS) (PSI 1-4); higher = more stable; sorted into four equal gates, so the index is relative within each strain
settings: pdr5∆
endpoint_label: protein stability index
Just the number.

// sample TTYSVDDYYKEIIGGGS [ISW2] , its protein stability index was 3.02

// sample GKASLFAQGKRRYDRKQ [RPL42A] , its protein stability index was 3.09

// sample HIPICVTFSFFNPQDTE [RRP45] , its protein stability index was 1.61

// sample LQRKDYTSIVQCCEFMT [YML103C/NUP188] , its protein stability index was 1.62

// sample VVARRSNSANVSSPESE [ITC1] , its protein stability index was 3.35

// sample IELSDGSTFKVNQEFIF [YJL039C/NUP192] , its protein stability index was 3.07

// sample VLMETKNTQSPQTPLVE [SNU114] , its protein stability index was 2.93

// sample GYDKKKNKPELYQIDYL [PRE1] , its protein stability index was 2.91

// sample HQQQLQQPHYIQRTRER [DSN1] , its protein stability index was 3.08

// sample CLNTQRGDSTETSSFGS [RRI1] , its protein stability index was 3.25

// sample ILVFQVSMKANKYQIKK [RPL25] , its protein stability index was 2.2

// sample QLNSRAVAVVVDPIQSV [RPN11] , its protein stability index was 1.65

// sample LELQVAQAFVELENSSP [RPS7A] , its protein stability index was 3.14

// sample GYVIKVFNNGIVVLVPK [DIS3] , its protein stability index was 2.38
